Numbers sourced from ChEMBL document CHEMBL1201862.

Tested system: Leucine aminopeptidase (Plasmodium falciparum 3D7, UniProt Q8IL11)
Sequence (Q8IL11 whole entry): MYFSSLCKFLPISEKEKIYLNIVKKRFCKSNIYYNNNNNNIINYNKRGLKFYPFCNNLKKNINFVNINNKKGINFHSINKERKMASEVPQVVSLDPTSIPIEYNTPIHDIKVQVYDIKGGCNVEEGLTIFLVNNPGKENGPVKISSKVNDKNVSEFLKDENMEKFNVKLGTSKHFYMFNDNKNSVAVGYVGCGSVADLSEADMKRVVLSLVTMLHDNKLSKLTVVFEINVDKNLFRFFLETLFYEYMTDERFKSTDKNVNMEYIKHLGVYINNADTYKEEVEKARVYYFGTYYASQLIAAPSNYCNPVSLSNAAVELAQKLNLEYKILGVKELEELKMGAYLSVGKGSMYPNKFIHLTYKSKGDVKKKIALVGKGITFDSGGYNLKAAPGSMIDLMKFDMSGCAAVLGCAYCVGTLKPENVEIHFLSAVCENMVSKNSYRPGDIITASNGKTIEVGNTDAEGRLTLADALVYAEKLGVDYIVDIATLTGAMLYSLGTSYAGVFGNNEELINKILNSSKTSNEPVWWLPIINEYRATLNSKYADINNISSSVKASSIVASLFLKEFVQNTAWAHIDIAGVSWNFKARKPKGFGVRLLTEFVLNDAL
Assay explanation: P. falciparum M17LAP inhibitors, primary screen, biochemical, fluorogenic H-Leu-NHMec substrate, 1536-well (AID 1619)
Format: functional
Activity calls are given as the source filed them.
Measured IC50, listed per entry.

O=C(O)C12CC3CC(C1)CC(n1ncc(NCc4ccccc4)c(Cl)c1=O)(C3)C2	90 µM (active)

Query string: Entry CCCn1c(C)cc(C(=O)COC(=O)c2cccnc2O)c1C : reported IC50 = ?
Result string: 15.3 µM (active)

Query string: Entry CCOc1ccc(NC(=O)C2CC=CCC2C(=O)O)cc1 (stereo not drawn) : reported IC50 = ?
Result string: 10.5 µM (active)

Query string: Entry COc1ccc(NC(=O)CN2c3cccc4cccc(c34)S2(=O)=O)cc1 : reported IC50 = ?
Result string: 3.84 µM (active)

Query string: Entry COc1ccc2c(c1OC)C(=O)OC2CC(=O)c1ccc(O)c(O)c1 (stereo not drawn) : reported IC50 = ?
Result string: 35.2 µM (active)

----------
Tested system: DNA (cytosine-5)-methyltransferase 1 (Homo sapiens)
Sequence (P26358 whole entry): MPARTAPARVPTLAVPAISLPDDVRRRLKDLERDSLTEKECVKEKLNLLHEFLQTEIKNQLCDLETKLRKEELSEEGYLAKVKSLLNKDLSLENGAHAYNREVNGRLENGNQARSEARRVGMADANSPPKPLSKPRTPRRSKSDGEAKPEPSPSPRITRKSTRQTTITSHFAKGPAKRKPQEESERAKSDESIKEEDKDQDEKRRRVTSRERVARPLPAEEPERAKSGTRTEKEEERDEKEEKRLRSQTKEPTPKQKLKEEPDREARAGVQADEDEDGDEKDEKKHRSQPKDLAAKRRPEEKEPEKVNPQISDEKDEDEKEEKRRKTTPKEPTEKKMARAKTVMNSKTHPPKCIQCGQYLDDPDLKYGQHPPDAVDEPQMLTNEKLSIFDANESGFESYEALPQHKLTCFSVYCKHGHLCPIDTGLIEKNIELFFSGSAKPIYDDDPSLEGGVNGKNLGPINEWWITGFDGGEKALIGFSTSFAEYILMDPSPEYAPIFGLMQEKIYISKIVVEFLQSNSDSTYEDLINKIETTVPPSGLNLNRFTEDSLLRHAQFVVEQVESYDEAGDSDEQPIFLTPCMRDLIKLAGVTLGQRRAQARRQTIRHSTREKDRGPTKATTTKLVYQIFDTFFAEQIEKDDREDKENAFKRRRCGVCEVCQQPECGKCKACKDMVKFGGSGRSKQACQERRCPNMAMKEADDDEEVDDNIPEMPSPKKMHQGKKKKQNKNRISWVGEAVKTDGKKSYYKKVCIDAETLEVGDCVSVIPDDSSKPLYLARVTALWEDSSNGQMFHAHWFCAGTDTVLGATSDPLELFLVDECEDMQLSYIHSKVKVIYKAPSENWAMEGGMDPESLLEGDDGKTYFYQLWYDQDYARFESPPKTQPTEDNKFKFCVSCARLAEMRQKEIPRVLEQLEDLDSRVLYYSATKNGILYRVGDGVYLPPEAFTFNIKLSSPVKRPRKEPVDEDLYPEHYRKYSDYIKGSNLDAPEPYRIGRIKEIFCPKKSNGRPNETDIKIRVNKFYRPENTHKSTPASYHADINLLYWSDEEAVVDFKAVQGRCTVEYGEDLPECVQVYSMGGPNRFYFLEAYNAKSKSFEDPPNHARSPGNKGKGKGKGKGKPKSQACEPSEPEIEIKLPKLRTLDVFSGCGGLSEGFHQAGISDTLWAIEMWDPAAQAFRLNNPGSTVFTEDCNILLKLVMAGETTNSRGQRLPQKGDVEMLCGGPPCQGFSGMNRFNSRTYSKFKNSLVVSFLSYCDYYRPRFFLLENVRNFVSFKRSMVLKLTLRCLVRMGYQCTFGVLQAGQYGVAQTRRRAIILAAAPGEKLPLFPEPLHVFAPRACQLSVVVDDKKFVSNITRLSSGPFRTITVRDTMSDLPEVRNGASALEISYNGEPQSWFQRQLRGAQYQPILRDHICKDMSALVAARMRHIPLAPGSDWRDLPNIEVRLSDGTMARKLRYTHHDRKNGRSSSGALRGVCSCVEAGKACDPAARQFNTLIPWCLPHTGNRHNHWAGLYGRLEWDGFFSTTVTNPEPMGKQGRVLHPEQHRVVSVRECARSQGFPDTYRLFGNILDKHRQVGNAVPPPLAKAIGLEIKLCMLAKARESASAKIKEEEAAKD
Assay explanation: DNMT1 methyltransferase inhibitors, confirmation, biochemical, fluorescent molecular beacon (AID 602386)
Type: functional
Calls of active or inactive are those of the source.
Property label: IC50

Worked set:
CN(c1ccccc1)c1ccc(/C=C(\CCC(=O)O)c2nc3ccccc3s2)cc1[N+](=O)[O-]	5.34 µM (active)
O=C(CN1C(=O)S/C(=C\c2ccc(-c3cc(C(=O)O)ccc3Cl)o2)C1=O)Nc1ccc2c(c1)OCO2	> 99 µM (inactive)
O=CC(O)C1OC(=O)C(O)C1O (centres undefined)	14.4 µM (active)

Now look at this one.
Query string: Entry O=C(/C=C/c1ccc(Br)cc1)NC(=S)Nc1ccc(S(=O)(=O)Nc2nccs2)cc1 : reported IC50 = ?
Result string: 5.22 µM (active)

----------
Measured AC50, listed per entry.
Protein target, amino acids: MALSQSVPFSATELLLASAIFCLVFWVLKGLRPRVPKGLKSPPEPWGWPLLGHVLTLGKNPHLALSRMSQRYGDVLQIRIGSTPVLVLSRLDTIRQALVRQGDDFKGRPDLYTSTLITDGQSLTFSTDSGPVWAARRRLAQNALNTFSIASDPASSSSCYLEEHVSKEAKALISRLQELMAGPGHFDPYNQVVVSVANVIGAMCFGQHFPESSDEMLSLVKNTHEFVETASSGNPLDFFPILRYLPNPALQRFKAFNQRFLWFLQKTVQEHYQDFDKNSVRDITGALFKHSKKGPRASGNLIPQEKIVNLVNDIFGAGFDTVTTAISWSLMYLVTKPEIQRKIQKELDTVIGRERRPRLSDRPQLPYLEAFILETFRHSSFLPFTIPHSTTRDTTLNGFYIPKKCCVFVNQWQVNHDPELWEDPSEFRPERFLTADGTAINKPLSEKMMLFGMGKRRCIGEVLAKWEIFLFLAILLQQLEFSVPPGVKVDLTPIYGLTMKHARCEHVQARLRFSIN

Worked set:
O=C(CCN1C(=O)S/C(=C\c2ccccc2)C1=O)Nc1ccc(S(=O)(=O)Nc2nccs2)cc1	31.6 µM (inconclusive)
FC(F)Sc1ccc(NC2=NN=C(c3ccc4c(c3)OCCO4)CS2)cc1	35.5 µM (inconclusive)
CCOc1cccc(CNCCNC(=O)c2nonc2N)c1	39.8 µM (inconclusive)
N#CCCn1c(=O)c(-c2cc(F)cc(F)c2)nc2cnc(Nc3ccccc3)nc21	3.16 µM (inconclusive)
Cc1ccccc1-c1cncnc1N1CCN(C)CC1	15.8 µM (inconclusive)

Query string: Entry CCC[C@@H]1C[C@@]1(CCC)C(NC(=O)c1cccs1)c1ccc(Cl)cc1 (stereo partly specified) : reported AC50 = ?
Result string: 10 µM (inconclusive)

Query string: Entry CCCCOc1ccccc1N : reported AC50 = ?
Result string: 39.8 µM (inconclusive)

Query string: Entry O=c1c2cnn(-c3ccccc3)c2nnn1/N=C/c1cccnc1 : reported AC50 = ?
Result string: 3.16 µM (inconclusive)

Query string: Entry Cc1oc(-c2cccs2)[n+]([O-])c1C : reported AC50 = ?
Result string: 25.1 µM (inconclusive)

Query string: Entry CCOc1ccc(/C=C2\C(=O)c3ccccc3OC2c2ccccc2)cc1 (stereo unspecified) : reported AC50 = ?
Result string: 12.6 µM (inconclusive)

Query string: Entry CC(=O)N1CCC2(CC1)CN(C(=O)Nc1cccc(C#N)c1)C2 : reported AC50 = ?
Result string: 12.6 µM (inconclusive)

----------
Assay explanation: THP-1 cell cytotoxicity, dose response, cytotoxicity control for non-replicating M. tuberculosis project (AID 489025)
Assay type: functional
Activity calls are given as the source filed them.
Property label: CC50

Worked set:
CCCCNC(=O)Nc1nnc(-c2ccc(OCC)cc2)o1	> 40 µM (active)
CN1C(=O)C(=C(Nc2ccccc2)SCc2ccccc2Cl)C(=O)N(C)C1=O	> 40 µM (active)
Cc1ccc(-c2nnc(NC(=O)c3ccco3)o2)c(C)c1	> 40 µM (active)
O=C(Nc1cccc(Cl)c1N1CCCC1)c1ccc([N+](=O)[O-])o1	24 µM (active)
COc1cccc(-c2nnc(NC(=O)c3ccc(S(=O)(=O)N(CC(C)C)CC(C)C)cc3)o2)c1	0.996 µM (active)

Now look at this one.
Query string: Entry Cc1ccc(S(=O)(=O)CCC(=O)Nc2nc(-c3ccncc3)cs2)cc1 : reported CC50 = ?
Result string: > 40 µM (active)

----------
Tested system: Nonstructural protein 1 (Influenza A virus, UniProt Q194T2)
Sequence (Q194T2 whole entry): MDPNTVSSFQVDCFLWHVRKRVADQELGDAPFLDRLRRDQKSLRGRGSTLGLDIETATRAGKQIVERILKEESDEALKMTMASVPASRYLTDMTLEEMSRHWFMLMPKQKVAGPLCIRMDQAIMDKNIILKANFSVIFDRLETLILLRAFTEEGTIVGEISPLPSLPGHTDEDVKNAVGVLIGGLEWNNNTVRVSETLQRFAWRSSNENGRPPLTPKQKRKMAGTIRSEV
Assay type: functional, Influenza A virus (A/California/07/2009(H1N1))
Active and inactive are the calls of the source.
Property label: IC50

Worked set:
O=C1/C(=C/c2ccc(O)c(O)c2)SC(=S)N1Nc1ccccc1	31.6 µM (active)
Cc1ccc(NC(=O)CCCCCC2NC(=O)NC2C)cc1 (stereo not drawn)	1.06 µM (active)
Cc1ccnc2c1ccc1cccnc12	0.736 µM (active)
CCOc1ccc(-c2nc(C#N)c(N3CCN(Cc4ccccc4)CC3)o2)cc1	> 100 µM (active)
O=C(Cn1cncn1)N/N=C/c1cc([N+](=O)[O-])ccc1O	3.9 µM (active)

Query string: Entry COc1ccc(N=Nc2cc(OC)c(N)cc2OC)cc1 : reported IC50 = ?
Result string: 35.3 µM (active)

Query string: Entry COc1cc(OC)c(-c2c3cc(O)c(=O)cc-3oc3cc(O)c(O)cc23)cc1OC : reported IC50 = ?
Result string: 41.7 µM (active)

Query string: Entry O=C1c2cccc(Cl)c2C(=O)c2c1cccc2N1CCCC1 : reported IC50 = ?
Result string: 8.7 µM (active)

----------
Measured EC50, listed per entry.
Tested system: Short transient receptor potential channel 4 (Mus musculus)
Sequence (Q9QUQ5 whole entry): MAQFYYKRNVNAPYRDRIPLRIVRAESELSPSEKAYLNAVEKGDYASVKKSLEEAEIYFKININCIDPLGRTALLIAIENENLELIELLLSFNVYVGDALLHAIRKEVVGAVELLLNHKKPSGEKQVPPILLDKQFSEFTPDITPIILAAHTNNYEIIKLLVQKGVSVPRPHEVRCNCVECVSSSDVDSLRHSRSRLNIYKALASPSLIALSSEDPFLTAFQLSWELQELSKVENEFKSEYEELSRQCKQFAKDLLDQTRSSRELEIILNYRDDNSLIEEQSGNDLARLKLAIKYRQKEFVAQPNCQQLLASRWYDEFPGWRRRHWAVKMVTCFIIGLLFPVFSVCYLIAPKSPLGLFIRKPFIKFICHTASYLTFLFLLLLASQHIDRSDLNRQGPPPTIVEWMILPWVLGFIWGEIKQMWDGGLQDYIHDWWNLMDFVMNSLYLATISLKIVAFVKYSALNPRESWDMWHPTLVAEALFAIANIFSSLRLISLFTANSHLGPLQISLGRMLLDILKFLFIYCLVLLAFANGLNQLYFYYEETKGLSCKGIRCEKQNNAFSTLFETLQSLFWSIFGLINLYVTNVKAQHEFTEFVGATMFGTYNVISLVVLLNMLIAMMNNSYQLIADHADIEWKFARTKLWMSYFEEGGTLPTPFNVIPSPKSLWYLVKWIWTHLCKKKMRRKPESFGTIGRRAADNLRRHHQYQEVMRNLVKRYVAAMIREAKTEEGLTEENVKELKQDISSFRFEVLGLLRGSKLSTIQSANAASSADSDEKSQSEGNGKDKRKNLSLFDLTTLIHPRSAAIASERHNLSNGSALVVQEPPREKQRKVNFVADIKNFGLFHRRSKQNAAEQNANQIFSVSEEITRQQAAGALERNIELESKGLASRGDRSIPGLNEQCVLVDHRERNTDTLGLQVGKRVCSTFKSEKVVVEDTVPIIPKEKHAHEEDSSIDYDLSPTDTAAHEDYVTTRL
Assay explanation: mouse TRPC4 channel inhibitors, dose response, cell-based, HEK293 TRPC4/mu-opioid, Fluo-4 calcium (AID 434942);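 also: potency of inhibitors blocking the TRPC4 calcium response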
Assay type: functional
Active and inactive are the calls of the source.

CC(C)(C)c1cc2cccnc2n1Cc1ccccc1	2110 nM (active)
O=C(c1cccc(C(=O)N2CCN(c3ccc(F)cc3)CC2)c1)N1CCN(c2ccc(F)cc2)CC1	841 nM (active)
Cc1cc(C)c2nc(C)cc(N/N=C/c3ccc(O)cc3)c2c1	5960 nM (active)

Now look at this one.
Query string: Form: Entry = COc1cccc(O)c1CN1CCCC(C(=O)c2cccc(C(F)(F)F)c2)C1 (centres undefined) | System = Short transient receptor potential channel 4 (Mus musculus) | EC50 = ____
Result string: 2110 nM (active)

----------
Measured AC50, listed per entry.
Tested system: Cytochrome P450 2C19 (Homo sapiens, UniProt P33261)
Sequence (P33261 whole entry): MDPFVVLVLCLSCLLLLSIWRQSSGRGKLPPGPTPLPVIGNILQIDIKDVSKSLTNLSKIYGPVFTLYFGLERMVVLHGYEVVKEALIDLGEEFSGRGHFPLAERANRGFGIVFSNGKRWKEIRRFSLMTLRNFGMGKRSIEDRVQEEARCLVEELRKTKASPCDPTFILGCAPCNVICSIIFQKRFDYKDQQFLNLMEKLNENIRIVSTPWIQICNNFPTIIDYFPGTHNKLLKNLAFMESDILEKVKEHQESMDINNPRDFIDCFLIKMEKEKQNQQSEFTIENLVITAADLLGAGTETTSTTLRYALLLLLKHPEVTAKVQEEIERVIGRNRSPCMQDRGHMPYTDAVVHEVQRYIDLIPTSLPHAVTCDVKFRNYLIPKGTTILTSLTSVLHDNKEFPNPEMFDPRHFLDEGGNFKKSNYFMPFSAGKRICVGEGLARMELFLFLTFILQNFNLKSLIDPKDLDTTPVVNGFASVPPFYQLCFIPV
Assay explanation: Cytochrome panel assay with activity outcomes. Panel member name: p450-cyp2c19 Compounds with AC50 equal or less than 10 uM are considered active
Type: functional
Study conditions: read-out: AC50

Worked set:
O=C1CC(N2CCN(C(c3ccccc3)c3ccccc3)CC2)C(=O)N1Cc1ccc(N2CCCC2=O)cc1 (stereo not given)	5.01 µM (inconclusive)
Cc1ccc(C(=O)COC(=O)c2ccc3c(c2)C(=O)N(c2cccc4ncccc24)C3=O)cc1C	15.8 µM (inconclusive)
Cc1ccccc1-c1cncnc1N1CCN(C)CC1	39.8 µM (inconclusive)
Cc1ccc2c[nH]nc2c1NC(=S)NC(=O)c1ccccc1	11.2 µM (inconclusive)
COc1ccc(NC(=O)c2cc(C(C)C)on2)cc1OC	20 µM (inconclusive)
CCOC(=O)C1=C(N)Oc2ccc(Br)cc2[C@@H]1[C@@H](C#N)C(=O)OCC	25.1 µM (inconclusive)

Query string: Form: Entry = O=c1cnc2cnc(Oc3ccccc3)nc2n1C1CC1 | System = Cytochrome P450 2C19 (Homo sapiens, UniProt P33261) | AC50 = ____
Result string: 39.8 µM (inconclusive)

Query string: Form: Entry = CN(C)c1ccc(-c2nc(NCCN3CCOCC3)c3ccccc3n2)cc1 | System = Cytochrome P450 2C19 (Homo sapiens, UniProt P33261) | AC50 = ____
Result string: 39.8 µM (inconclusive)

Query string: Form: Entry = CCCc1nnc(NC(=O)c2cccs2)s1 | System = Cytochrome P450 2C19 (Homo sapiens, UniProt P33261) | AC50 = ____
Result string: 25.1 µM (inconclusive)

Query string: Form: Entry = CCCSc1cc(N2CCCC2)nc(-c2ccccc2)n1 | System = Cytochrome P450 2C19 (Homo sapiens, UniProt P33261) | AC50 = ____
Result string: 39.8 µM (inconclusive)
